- System: DU145 cells
- measurement_protocol: Antiproliferative evaluation, CyQuant assay, DU145
- Assay type: cell-based, human
- measurement_parameters: exponentially growing cells, 48 h incubation, read-out: IC50, growth inhibition, DU145, prostate
- Experimental: FIG. 2 is a graphical depiction of the results of an antiproliferative evaluation of compound I against the following cancer cell lines: DU145, PC3, BT549, HeLa, MDA-MB-231, A549, and MCF-7. Cells growing exponentially in 48-well plates were incubated with different concentrations of compound I for 48 h. The increases in cell numbers were determined by the CyQuant assay and are expressed as a percentage of the increase in control wells with the vehicle (0.1% ethanol). […]

>  <molecule>
CCCCCCCCCCCCCCCCOC[C@@H](COP(=O)([O-])OCC[N+](C)(C)C)NC(=O)OC [Compound III]

>  <IC50 (nM)>
2400

$$$$
>  <molecule>
CCCCCCCCCCCCCCCCOC[C@H](CCP(=O)([O-])OCC[N+](C)(C)C)OC(=O)NC [Compound II]

>  <IC50 (nM)>
2100

$$$$
